Reference source for all entries: ChEMBL document CHEMBL3872236

test: in vitro; conditions: guinea pig, liver microsomes
observable: remaining at 1 h, 1 µM (%)
The response must be a number in % with no trailing unit.

Just so you know, measured remaining at 1 h, 1 µM for "O=C(Nc1cc(F)cc(C(F)(F)F)c1)c1cc2nc(Nc3c(F)cccc3Cl)[nH]c2c2c1OCCO2" came out at 95.8

----------
experiment: in vitro; conditions: human, liver microsomes
observable: remaining at 1 h, 1 µM
Answer by giving the amount and then stating its unit.

// remaining at 1 h, 1 µM lookup, compound = "O=C(Nc1cc(F)cc(C(F)(F)F)c1)c1cc2nc(Nc3c(F)cccc3Cl)[nH]c2c2c1OCCO2" , result: 98.2%
